These data points were gathered from patent US20240239878A1.

# assayedTarget: T1, human DLL3 on SHP-77 cells (human, UniProt Q9NYJ7 27-618)
# T1 construct: also called DLL3-expressing cells (SHP-77)
# T1 sequence: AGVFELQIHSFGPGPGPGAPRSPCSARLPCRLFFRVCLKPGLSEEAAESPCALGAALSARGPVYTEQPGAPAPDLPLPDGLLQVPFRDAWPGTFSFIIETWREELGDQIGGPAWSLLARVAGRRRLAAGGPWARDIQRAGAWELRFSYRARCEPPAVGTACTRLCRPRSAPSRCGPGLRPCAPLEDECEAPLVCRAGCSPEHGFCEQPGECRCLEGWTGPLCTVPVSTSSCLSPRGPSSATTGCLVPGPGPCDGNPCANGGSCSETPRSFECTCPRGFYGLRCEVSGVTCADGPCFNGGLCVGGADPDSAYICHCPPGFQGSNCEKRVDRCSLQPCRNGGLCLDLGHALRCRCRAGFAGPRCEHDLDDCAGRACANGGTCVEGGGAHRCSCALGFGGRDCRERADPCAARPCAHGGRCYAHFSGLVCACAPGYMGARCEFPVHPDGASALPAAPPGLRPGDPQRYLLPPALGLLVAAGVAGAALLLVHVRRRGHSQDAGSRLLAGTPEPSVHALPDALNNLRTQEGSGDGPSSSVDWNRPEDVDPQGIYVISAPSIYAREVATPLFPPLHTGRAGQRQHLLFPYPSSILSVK
# measurementProtocol: flow cytometry, SHP-77 cells
endpointName: Top MFI (MFI)
Numeric only. Scale: MFI

{"binder": "hDLL3-3-2 camelid-derived humanized anti-DLL3 antibody (antibody, V domains shown) VH: EVQLVESGGGLVQPGGSLRLSCKSPTYTISSGYMGWFRQAPGKEREGVAAIYIGGSTTLYADSVKGRFTISRDNSKNTLYLQMNSLRAEDTAVYYCAAQLRPNSAYHPLDGRKYNYWGQGTLVTVSS", "endpointResult": 691}

Attention now turns to another entry.
Ask: Tell me the measured Top MFI of DLL3-3 camelid-derived anti-DLL3 chimeric antibody (antibody, human IgG1, V domains shown) VH: DVQLVESGGGSVQAGGSLKLSCKSPTYTISSGYMGWFRQAPGKEREGVAAIYIGGSTTLYADSVKGRFTISADNAEKTVYLQMNTLKPEDSAMYYCAAQLRPNSAYHPLDGRKYNYWGQGTQVTVSS , please.
Reply: 864
